# Population Healthy Nuclei (%) listing for each entry below
Tested on: Fibroblast
Assay: Multiplex assay against human fibroblast
Format: toxicity, cell-based
Conditions: 24 h, 1 µM, compound concentration 1 uM, replicate 1
Just so you know, I need the unit written after the number.

INSERT INTO results (molecule, observed_property, reading) VALUES
  ('CC(C)Oc1ccc(C(=O)N[C@H](CNC(=O)CN(C)C)Cc2ccc(-c3cn4cccc([C@H](C)O)c4n3)cc2)cc1Cl [GSK-923295A]', 'Population Healthy Nuclei (%)', '58%');

Documented Population Healthy Nuclei (%) of "Cc1cn(-c2cc(NC(=O)c3ccc4c(c3)CN(c3cncnc3)C[C@@H]4C)cc(C(F)(F)F)c2)cn1" : 45%

Documented Population Healthy Nuclei (%) of "Nc1nc2c(c(N3CCNCC3)n1)CCC1=C2[C@@H]2CCCC[C@@H]2O1" : 50%
